Cited source: patent US8759366B2

Measured pIC50, listed per entry.
- tgt: recombinant human SYK (GST-hSYK fusion protein) (Homo sapiens (Human), UniProt P43405)
- condition_set: read-out: rhSYK Activity; Table 36A
pIC50: −log10 of the molar value.

Observe how each entry below is paired with its result.
compound	pIC50
O=C(O)C1CCC(c2ncc(-c3cccc(Nc4nccc(C(F)(F)F)n4)c3)s2)CC1 (centres unmarked) [Example 36A-4]	> 7.00
Cc1cc(Nc2nccc(C(F)(F)F)n2)cc(-c2cnc(C3CCCC(=O)C3)s2)c1 (centres unmarked) [Example 36A-8]	> 7.00
CCOC(=O)C1CCC(c2ncc(-c3cc(C)cc(Nc4nccc(C(F)(F)F)n4)c3)s2)CC1 (centres unmarked) [Example 36A-2]	6.00 to 7.00
Cc1cc(Nc2nccc(C(F)(F)F)n2)cc(-c2cnc(C3CCC4(CC3)OCCO4)s2)c1 [Example 36A-12]	6.00 to 7.00

Lab note: next compound to report on.
Provide measured pIC50 value, entry: Cc1cc(Nc2nccc(C(F)(F)F)n2)cc(-c2cnc(C3CCCCC(=O)C3)s2)c1 (centres unmarked) [Example 36A-10]
> 7.00

* * *

- tgt: recombinant human SYK (GST-hSYK fusion protein) (Homo sapiens (Human), UniProt P43405)
- condition_set: read-out: rhSYK Activity; Table 116A
pIC50: −log10 of the molar value.
assay_metric: pIC50

compound	tgt	pIC50
Cc1cc(Nc2ncc(Cl)c(O)n2)cc(-c2cnc(C3(O)CCC(C(=O)O)C(C)(C)C3)s2)c1 (centres unmarked) [116A-29]	recombinant human SYK (GST-hSYK fusion protein) (Homo sapiens (Human), UniProt P43405)	6.00 to 7.00

Provide measured pIC50 value, entry: COc1ccc(Cn2cc(-c3ccnc(Nc4cc(C)cc(-c5cnc(C6(O)CCC(C(=O)O)CC6)s5)c4)n3)nn2)cc1 (centres unmarked) [116A-17]
> 7.00

* * *

- tgt: recombinant human SYK (GST-hSYK fusion protein) (Homo sapiens (Human))
- condition_set: read-out: rhSYK Activity; Table 24
assay_metric: IC50

Provide measured IC50 value, entry: CC1(c2ncc(-c3cc(Nc4nccc(C(F)(F)F)n4)cc(N4CCOCC4)c3)s2)OCCO1
< 100 nM

* * *

Measured pIC50, listed per entry.
- tgt: recombinant human SYK (GST-hSYK fusion protein) (Homo sapiens (Human))
- condition_set: read-out: rhSYK Activity; Table 113D, upper part
pIC50: −log10 of the molar value.

compound	pIC50
COC(=O)c1ccc(C2(c3ncc(-c4cc(C)cc(Nc5nccc(C(F)(F)F)n5)c4)s3)CC2)cc1 [Example 113D-8]	6.00 to 7.00

Lab note: next compound to report on.
Provide measured pIC50 value, entry: COC(=O)c1ccc(/C=C/c2ncc(-c3cc(C)cc(Nc4nccc(C(F)(F)F)n4)c3)s2)cc1 [Example 113D-4]
6.00 to 7.00

* * *

- tgt: recombinant human SYK (GST-hSYK fusion protein) (Homo sapiens (Human))
- condition_set: read-out: rhSYK Activity; Table 26
Measured IC50, listed per entry.

Observe how each entry below is paired with its result.
compound	tgt	IC50
CCOC(=O)C1CCC(F)(c2ncc(-c3cccc(Nc4nccc(C(F)(F)F)n4)c3)s2)CC1 (centres unmarked) [Example 26-5]	recombinant human SYK (GST-hSYK fusion protein) (Homo sapiens (Human))	1000 to 10000 nM
Cc1cc(Nc2nccc(C(F)(F)F)n2)cc(-c2cnc(C3(F)CCC(C(=O)O)CC3)s2)c1 (centres unmarked)	recombinant human SYK (GST-hSYK fusion protein) (Homo sapiens (Human))	< 100 nM
FC(F)(F)c1ccnc(Nc2cc(-c3cnc(C4(F)CCC4)s3)cc(N3CCOCC3)c2)n1	recombinant human SYK (GST-hSYK fusion protein) (Homo sapiens (Human))	100 to 1000 nM
O=C(O)C1CCC(F)(c2ncc(-c3cccc(Nc4nccc(C(F)(F)F)n4)c3)s2)CC1 (centres unmarked)	recombinant human SYK (GST-hSYK fusion protein) (Homo sapiens (Human))	< 100 nM

Provide measured IC50 value, entry: CCOC(=O)C1CCC(F)(c2ncc(-c3cccc(Nc4nccc(C(F)(F)F)n4)c3)s2)CC1 (centres unmarked) [Example 26-4]
100 to 1000 nM

* * *

- tgt: recombinant human SYK (GST-hSYK fusion protein) (Homo sapiens (Human))
- condition_set: read-out: rhSYK Activity; Table 117; HTRF assay, IC50 class symbols
assay_metric: IC50

For recombinant human SYK (GST-hSYK fusion protein) (Homo sapiens (Human)), give the measured IC50 of the entry Cc1cc(Nc2nccc(C(F)(F)F)n2)cc(-c2cnc(C3(O)CCC(C)(C(N)=O)CC3)s2)c1 (stereo not shown) [Example 117-3]
< 100 nM

* * *

- tgt: recombinant human SYK (GST-hSYK fusion protein) (Homo sapiens (Human), UniProt P43405)
- condition_set: read-out: rhSYK Activity; Table 21
Measured IC50, listed per entry.

molecule	experimental_value
FC(F)(F)c1ccnc(Nc2cccc(-c3cnc(CCN4CCCC4=S)s3)c2)n1	< 0.1 µM

Provide measured IC50 value, entry: O=C(NC1CC1)C1CCC(c2ncc(-c3cccc(Nc4nccc(C(F)(F)F)n4)c3)s2)CC1 (centres unmarked)
< 0.1 µM

* * *

- tgt: rhSYK (Homo sapiens (Human), UniProt P43405)
- condition_set: read-out: rhSYK activity
pIC50: −log10 of the molar value.
assay_metric: pIC50

For rhSYK (Homo sapiens (Human), UniProt P43405), give the measured pIC50 of the entry CCOC(=O)C1CCC(O)(c2ncc(-c3cc(C)cc(Nc4nccc(C(F)(F)F)n4)c3)s2)CC1 (mixture of isomers)
> 7.00

For rhSYK (Homo sapiens (Human), UniProt P43405), give the measured pIC50 of the entry FC(F)(F)c1cc(Br)cc(Nc2nccc(C(F)(F)F)n2)c1
5.00 to 6.00

For rhSYK (Homo sapiens (Human), UniProt P43405), give the measured pIC50 of the entry Cc1cc(Nc2nccc(C(F)(F)F)n2)cc(-c2cnc(C3(O)CCNCC3)s2)c1
> 7.00

For rhSYK (Homo sapiens (Human), UniProt P43405), give the measured pIC50 of the entry Cc1cc(Nc2nccc(C(=O)N3CCNCC3)n2)cc(-c2cnc(C(C)(O)C(F)(F)F)s2)c1 (stereo not shown)
> 7.00

* * *

- tgt: recombinant human SYK (GST-hSYK fusion protein) (Homo sapiens (Human))
- condition_set: read-out: rhSYK Activity; Table 33C
assay_metric: IC50

Provide measured IC50 value, entry: Cc1cc(Nc2nccc(C)n2)cc(-c2cnc(C3(O)C4CC5CC3CC(C(=O)O)(C5)C4)s2)c1 (stereo not shown) [Example 33C-20]
< 100 nM

* * *

- tgt: rhSYK (Homo sapiens (Human), UniProt P43405)
- condition_set: read-out: rhSYK activity
pIC50: −log10 of the molar value.
Measured pIC50, listed per entry.

Observe how each entry below is paired with its result.
compound	experimental_value
Cc1cc(Nc2ncc(F)c(C3CC3)n2)cc(-c2cnc(C(O)(CO)C(F)(F)F)s2)c1 (stereo not shown) [Example 58]	> 7.00
CC1(C)C(O)C(C)(C)C1(O)c1ncc(-c2cccc(Nc3nccc(C(F)(F)F)n3)c2)s1 (stereo not shown) [Example 6-10]	6.00 to 7.00
Cc1cc(Nc2nccc(C)n2)cc(-c2cnc(C3(O)CCC(C(=O)O)[C@H]4CCCC[C@@H]43)s2)c1 (stereo partly shown) [Example 4B-23]	> 7.00

Lab note: next compound to report on.
Provide measured pIC50 value, entry: Cc1cc(Nc2nccc(C(F)(F)F)n2)cc(-c2cnc(C3(O)CCN(S(N)(=O)=O)CC3)s2)c1 [Example 49]
> 7.00

* * *

- tgt: rhSYK (Homo sapiens (Human))
- condition_set: read-out: rhSYK activity
Measured IC50, listed per entry.

Observe how each entry below is paired with its result.
molecule	tgt	IC50
CCOC(=O)C1CCC(O)(c2ncc(-c3cc(C)cc(Nc4nccc(C)n4)c3)s2)CC1c1ccccc1C (stereo not drawn)	rhSYK (Homo sapiens (Human))	100 to 1000 nM
Cc1cc(Nc2nccc(C(F)(F)F)n2)cc(-c2cnc(C(O)C(F)(F)F)s2)c1 (single isomer, unassigned) [Example 6-4]	rhSYK (Homo sapiens (Human))	< 100 nM
Cc1cc(Nc2nccc(C(F)(F)F)n2)cc(-c2cnc(C3(O)COC(C)(C)OC3)s2)c1	rhSYK (Homo sapiens (Human))	< 100 nM
Cc1cc(Nc2nccc(C(F)(F)F)n2)cc(-c2cnc(C3(O)CCOCC3)s2)c1	rhSYK (Homo sapiens (Human))	< 100 nM
COC(=O)NS(=O)(=O)N1CCC(O)(c2ncc(-c3cc(C)cc(Nc4nccc(OC)n4)c3)s2)CC1	rhSYK (Homo sapiens (Human))	< 100 nM
Cc1cc(Nc2nccc(C(F)(F)F)n2)cc(-c2cnc(C(O)CCc3c[nH]cn3)s2)c1 (stereo not drawn)	rhSYK (Homo sapiens (Human))	< 100 nM

Provide measured IC50 value, entry: Cc1cc(Nc2nccc(C(F)(F)F)n2)cc(-c2cnc(C3(O)CCC(N)(C(=O)O)CC3)s2)c1 (stereo not drawn)
< 100 nM

Provide measured IC50 value, entry: Cc1cc(Nc2nccc(C(F)(F)F)n2)cc(-c2cnc(C(C)(C)O)s2)c1
< 100 nM

Provide measured IC50 value, entry: OC1(c2ncc(-c3cc(Nc4nccc(C(F)(F)F)n4)cc(C(F)(F)F)c3)s2)CCC1
100 to 1000 nM

Provide measured IC50 value, entry: Cc1cc(Nc2nccc(C)n2)cc(-c2cnc(C3(O)CCC(C)(CC(=O)O)CC3)s2)c1 (single isomer, unassigned) [Example 4C-12]
< 100 nM

Provide measured IC50 value, entry: CC(C)(c1ncc(-c2cc(Nc3nccc(C(F)(F)F)n3)cc([N+](=O)[O-])c2)s1)S(N)(=O)=O
100 to 1000 nM

Provide measured IC50 value, entry: OC(c1ncc(-c2cccc(Nc3nccc(C(F)(F)F)n3)c2)s1)(C1CC1)C(F)(F)F (stereo not drawn)
< 100 nM

Provide measured IC50 value, entry: Cc1cc(Nc2nccc(C(F)(F)F)n2)cc(-c2cnc(C3(C)OC(=O)CC3(C)C)s2)c1 (stereo not drawn)
< 100 nM

Provide measured IC50 value, entry: Cc1cc(Nc2nccc(C(F)(F)F)n2)cc(-c2cnc(C3(O)CCC(C4(N)CC4)CC3)s2)c1 (stereo not drawn) [Example 4C-20]
< 100 nM

Provide measured IC50 value, entry: Cc1cc(Nc2nccc(C(F)(F)F)n2)cc(-c2cnc(C3(O)CCN(C(=O)OC(C)(C)C)C(C(F)(F)F)C3)s2)c1 (stereo not drawn)
100 to 1000 nM

Provide measured IC50 value, entry: Cc1cc(Nc2nccc(C(F)(F)F)n2)cc(-c2cnc(C3(O)C4CC5CC(C4)C(C(=O)O)C3C5)s2)c1 (stereo not drawn)
< 100 nM

Provide measured IC50 value, entry: CC(=O)Nc1cc(Nc2nccc(C(F)(F)F)n2)cc(-c2cnc(C(C)(C)S(N)(=O)=O)s2)c1
< 100 nM

Provide measured IC50 value, entry: O=[N+]([O-])c1cc(Nc2nccc(C(F)(F)F)n2)cc(-c2cnc(C3(O)CCC3)s2)c1
100 to 1000 nM
